Source of measurements: ChEMBL document CHEMBL1287791

# assay_system: UniProt:P16083
# Sequence (P16083 whole entry): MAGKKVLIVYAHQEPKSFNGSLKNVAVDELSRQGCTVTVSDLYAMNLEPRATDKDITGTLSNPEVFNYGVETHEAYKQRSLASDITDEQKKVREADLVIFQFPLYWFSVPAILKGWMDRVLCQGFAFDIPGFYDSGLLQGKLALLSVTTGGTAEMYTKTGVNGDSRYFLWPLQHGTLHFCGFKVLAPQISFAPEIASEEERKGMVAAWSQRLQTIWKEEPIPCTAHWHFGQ
# procedure_text: Inhibition of human recombinant NQO2
experimental_readout: IC50 (µM)

Example results:
>  <compound>
Cc1nc(-n2nc(-c3ccccc3)cc2-c2ccccc2)sc1C(=O)/C=C/c1ccccc1

>  <assay_system>
UniProt:P16083

>  <IC50 (µM)>
5.8

$$$$
>  <compound>
COc1ccc(/C(Cl)=C(/C=O)c2cc(OC)c(OC)c(OC)c2)cc1OC

>  <assay_system>
UniProt:P16083

>  <IC50 (µM)>
22

$$$$
>  <compound>
CN(C)c1ccc(/C=c2\c3ccccc3n3c2cc(-c2ccccc2)[n+]3C)cc1

>  <assay_system>
UniProt:P16083

>  <IC50 (µM)>
1.7

$$$$
>  <compound>
Cc1ccc(/C=C/C(=O)c2sc(-n3nc(-c4ccccc4)cc3-c3ccccc3)nc2C)cc1

>  <assay_system>
UniProt:P16083

>  <IC50 (µM)>
3.2

$$$$
>  <compound>
CN1CC(c2ccccc2)=CC2=C1C=CC(=N)/C2=N\N

>  <assay_system>
UniProt:P16083

>  <IC50 (µM)>
2

$$$$
>  <compound>
Cn1c2ccccc2c2c3ccc[n+](C)c3ccc21

>  <assay_system>
UniProt:P16083

>  <IC50 (µM)>
5.5

$$$$
>  <compound>
Cc1nc(-n2nc(-c3ccccc3)cc2-c2ccccc2)sc1C(=O)/C=C/c1cccc([N+](=O)[O-])c1

>  <assay_system>
UniProt:P16083

>  <IC50 (µM)>
6.5

$$$$
>  <compound>
C(=C\c1c[nH]c2ccccc12)/c1nccc2ccccc12

>  <assay_system>
UniProt:P16083

>  <IC50 (µM)>
1.8

$$$$
>  <compound>
CCN(CC)CCCC(C)Nc1ccnc2cc(Cl)ccc12 (configuration not stated)

>  <assay_system>
UniProt:P16083

>  <IC50 (µM)>
1.5

$$$$

I: N=C(N)c1ccc(/N=N/c2cc(/C=C/c3ccccc3)ccc2O)cc1
II: c1ccc2sc(-c3c4ccccc4cc4ccc5ccccc5c34)cc2c1
III: Oc1cc(O)c2ccccc2c1
Ask: Output the entries ranked by IC50 from maximum down to minimum. A complete answer lists every label in the requested sequence.
Reply: II, III, I
(II: 6 µM, III: 3.3 µM, I: 1.4 µM)
